Origin of values: paper PMC3618282

Test: Transporter-mediated transepithelial Gly-Sar transport
Type: in vitro ADME, canine
Conditions: dog, BL–AP permeability, MDCKII-BCRP, AP chamber pH 5.0, BL pH 7.4
Square brackets hold non-standard residues; d marks the D form. Peptide text beside a SMILES is read from it. Sar = CNCC(=O)O
assay-metric: Papp B→A at 60 min, 0.5 μCi/mL (×10⁻⁶ cm/s)
I only need the number, in ×10⁻⁶ cm/s, no unit after it.

**Q:** Entry CN(CC(=O)O)C(=O)CN [Gly-Sar, Glycylsarcosine] (H-Gly-[Sar]-OH) : reported Papp B→A at 60 min, 0.5 μCi/mL = ?
**A:** 6.5

====

Assay: Transporter-mediated transepithelial Gly-Sar transport
Assay type: in vitro ADME, canine
Conditions: dog, BL–AP permeability, MDCKII-BCRP, AP chamber pH 6.0, BL pH 7.4
Square brackets hold non-standard residues; d marks the D form. Peptide text beside a SMILES is read from it. Sar = CNCC(=O)O
assay-metric: Papp B→A at 60 min, 0.5 μCi/mL (×10⁻⁶ cm/s)
Answer format: numeric, ×10⁻⁶ cm/s implied, no suffix.

**Q:** Please look up its Papp B→A at 60 min, 0.5 μCi/mL: CN(CC(=O)O)C(=O)CN [Gly-Sar, Glycylsarcosine] (H-Gly-[Sar]-OH)
**A:** 7.2

====

Experiment: Transporter-mediated transepithelial Gly-Sar transport
Assay type: in vitro ADME, canine
Settings: dog, MDCK-MDR1, AP–BL permeability, MDCKII-MDR1, AP chamber pH 6.0, BL pH 7.4
Square brackets hold non-standard residues; d marks the D form. Peptide text beside a SMILES is read from it. Sar = CNCC(=O)O
assay-metric: Papp A→B at 60 min, 0.5 μCi/mL (×10⁻⁶ cm/s)
Answer with a number only, understood to be in ×10⁻⁶ cm/s.

**Q:** Returns the measured Papp A→B at 60 min, 0.5 μCi/mL for the input compound. Input: CN(CC(=O)O)C(=O)CN [Gly-Sar, Glycylsarcosine] (H-Gly-[Sar]-OH)
**A:** 8

====

Tested on: apical peptide transporters
Assay: Apical [3H]Gly-Sar uptake
Format: in vitro ADME, canine
Details: dog, MDCKII-MRP2 cells (apical uptake), pH 7.4
Square brackets hold non-standard residues; d marks the D form. Peptide text beside a SMILES is read from it. Sar = CNCC(=O)O
assay-metric: Km at 15 min (µM)
Answer format: numeric, µM implied, no suffix.

**Q:** Give recorded Km at 15 min with apical peptide transporters for the following molecule: CN(CC(=O)O)C(=O)CN [Gly-Sar, Glycylsarcosine] (H-Gly-[Sar]-OH)
**A:** 84.8

====

Assay: Transporter-mediated transepithelial Gly-Sar transport
Type: in vitro ADME, canine
Settings: dog, MDCK, BL–AP permeability, MDCKII-wt, AP chamber pH 6.0, BL pH 7.4
Square brackets hold non-standard residues; d marks the D form. Peptide text beside a SMILES is read from it. Sar = CNCC(=O)O
assay-metric: Papp B→A at 60 min, 0.5 μCi/mL (×10⁻⁶ cm/s)
# unit: ×10⁻⁶ cm/s | format: bare number

**Q:** Fill blank: measured Papp B→A at 60 min, 0.5 μCi/mL of the compound CN(CC(=O)O)C(=O)CN [Gly-Sar, Glycylsarcosine] (H-Gly-[Sar]-OH) is ____.
**A:** 6
